System: Muscle tissue
Assay: Drug uptake in overnight fasted Sprague-Dawley rat muscle at 0.7 to 1.4 MBq, iv preincubated with POCA for 2 hrs before compound administration measured at 120 mins post treatment
Assay type: ADME, organism-based
Conditions: in vivo
MEASURED ATTRIBUTE: Drug uptake (%IDKg/g)

O=C(O)CCSCCCCCCCCCCCC[18F] ... 0.0298
O=C(O)CCCCSCCCCCCCCCCCC[18F] ... 0.0599
O=C(O)CCSCCCC/C=C\CCCCCCCC[18F] ... 0.0216
O=C(O)CCSCCCCCCCCCCCCCC[18F] ... 0.0197

###

Test system: Heart
Assay: Drug uptake in overnight fasted Sprague-Dawley rat heart at 0.7 to 1.4 MBq, iv preincubated with POCA for 2 hrs before compound administration measured at 30 mins post treatment
Assay type: ADME, organism-based
Conditions: in vivo, 0.5 h
MEASURED ATTRIBUTE: Drug uptake

O=C(O)CCCCSCCCCCCCCCCCC[18F] ... 0.3331 %IDKg/g
O=C(O)CCSCCCCCCCCCCCC[18F] ... 0.0792 %IDKg/g
O=C(O)CCSCCCCCCCCCCCCCC[18F] ... 0.1814 %IDKg/g
O=C(O)CCSCCCC/C=C\CCCCCCCC[18F] ... 0.1155 %IDKg/g
